System: Fusarium graminearum
Assay: Antifungal activity against Fusarium graminearum assessed as inhibition rate at 50 ug/mL
Format: functional
Field: inhibition at 50 µg/mL. Provide a value for each of the compounds that follow.
Answer format: numeric, % implied, no suffix.

State inhibition at 50 µg/mL (Fusarium graminearum) of `CO/N=C(/C(=O)OC)c1ccccc1CSc1cc(=O)c2ccccc2s1` .
61

State inhibition at 50 µg/mL (Fusarium graminearum) of `CO/N=C(/C(=O)OC)c1ccccc1CSc1nc2nc(C)cc(C)n2n1` .
50

State inhibition at 50 µg/mL (Fusarium graminearum) of `CO/N=C(/C(=O)OC)c1ccccc1CSc1nc(C)cc(C)n1` .
61
